# LD50 at 168 h per record follows
# Experimental Protocol: Behavioral toxicity in po dosed albino Icem-CET (SPF Caw) mouse measured up to 7 days by Irwin's test
# Format: organism-based
# Measurement Parameters: in vivo
Quantity Name: LD50 at 168 h (mg/kg)

1. C=CCNC(=O)/C(C)=C(\C)c1ccc(F)cc1; 400
2. C/C(C(=O)NC1CC1)=C(/C)c1ccccc1; 500
3. C=CCNC(=O)/C(C)=C(\C)c1cc(OC)c(OC)c(OC)c1; 600
4. C#CCNC(=O)/C(C)=C(\C)c1ccccc1; 300
5. C=CCNC(=O)/C(C)=C(/C)c1ccccc1; 600
6. C#CCNC(=O)/C(C)=C(\C)c1cc(OC)c(OC)c(OC)c1; 500
7. C=CCNC(=O)/C(C)=C(\C)c1ccc(Br)cc1; 600
8. C=CCNC(=O)/C(C)=C(\C)c1ccc(C)cc1; 600
9. C=CCNC(=O)/C(C)=C(/C)c1ccc(F)cc1; 400
10. C/C(C(=O)NC1CC1)=C(\C)c1ccccc1; 600
11. C=CCNC(=O)/C(C)=C(/C)c1ccc(Cl)cc1; 600
12. C/C(C(=O)NC1CC1)=C(/C)c1ccc(Cl)cc1; 300
13. C=CCNC(=O)/C(C)=C(/C)c1ccc(Br)cc1; 600
14. CCC1(c2ccccc2)C(=O)N=C([O-])NC1=O.[Na+] (stereo not given) [PHENOBARBITAL SODIUM]; 290
15. C/C(C(=O)NC1CC1)=C(\C)c1ccc(Cl)cc1; 450
16. C=CCNC(=O)/C(C)=C(\C)c1ccc(Cl)cc1; 300
17. C=CCNC(=O)/C(C)=C(\C)c1ccccc1; 550
18. C/C(C(=O)NC1CC1)=C(/C)c1ccc(F)cc1; 300

====

# ED50 per record follows
# Tested on: Mus musculus
# Experimental Protocol: Behavioral toxicity in po dosed albino Icem-CET (SPF Caw) mouse assessed as reduction in locomotor activity by Irwin's test
# Format: organism-based
# Measurement Parameters: in vivo
Quantity Name: ED50

1) C/C(C(=O)NC1CC1)=C(\C)c1ccc(C)cc1; 280 mg/kg
2) C=CCNC(=O)/C(C)=C(\C)c1ccc(OC)cc1; 200 mg/kg
3) C=CCNC(=O)/C(C)=C(\C)c1ccc(Br)cc1; 120 mg/kg
4) C=CCNC(=O)/C(C)=C(/C)c1ccc(F)cc1; 270 mg/kg
5) C#CCNC(=O)/C(C)=C(\C)c1ccccc1; 150 mg/kg
6) C=CCNC(=O)/C(C)=C(/C)c1ccccc1; 550 mg/kg
7) C/C(C(=O)NC1CC1)=C(/C)c1ccccc1; 100 mg/kg
8) C/C(C(=O)NC1CC1)=C(/C)c1ccc(C)cc1; 110 mg/kg
9) C/C(C(=O)NC1CC1)=C(/C)c1ccc(Br)cc1; 100 mg/kg
